Experimental target: Malate dehydrogenase, cytoplasmic (Homo sapiens)
Sequence (P40925 whole entry): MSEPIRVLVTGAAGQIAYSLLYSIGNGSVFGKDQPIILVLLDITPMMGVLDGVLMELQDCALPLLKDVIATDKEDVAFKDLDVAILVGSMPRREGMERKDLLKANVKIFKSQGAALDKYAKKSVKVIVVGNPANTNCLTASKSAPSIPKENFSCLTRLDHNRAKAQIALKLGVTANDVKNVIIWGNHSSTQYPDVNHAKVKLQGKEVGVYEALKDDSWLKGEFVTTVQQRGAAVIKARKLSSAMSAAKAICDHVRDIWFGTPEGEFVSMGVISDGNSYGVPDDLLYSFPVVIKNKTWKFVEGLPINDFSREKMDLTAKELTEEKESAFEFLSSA
Assay procedure: Inhibition of human MDH1 expressed in Escherichia coli after 30 mins by oxaloacetate-dependent NADH oxidation assay
pIC50: −log10 of the molar value.
Some compounds, each annotated with its measured pIC50.
Assay endpoint: pIC50

1. COC(=O)c1cccc(NC(=O)C(C)(C)Oc2ccc(C(C)(C)CC(C)(C)C)cc2)c1 | 5.85
2. COC(=O)c1cccc(NC(=O)COc2ccc(C(C)(C)CC(C)(C)C)cc2)c1 | 5.18
3. C#CCOC(=O)c1ccc(O)c(NC(=O)COc2ccc(C(C)(C)CC(C)(C)C)cc2)c1 | 6.04
4. COC(=O)c1ccc(O)c(NC(=O)CCOc2ccc(C(C)(C)CC(C)(C)C)cc2)c1 | 5.81
5. COCCOc1ccc(C(=O)OC)cc1NC(=O)COc1ccc(C(C)(C)CC(C)(C)C)cc1 | 4.74
6. COC(=O)c1ccc(O)c(NC(=O)COc2ccc(C(C)(C)CC(C)(C)C)cc2)c1 | 5.94
7. CCCCCc1ccc(OCC(=O)Nc2cccc(C(=O)OC)c2)cc1 | 5.17
8. CC(C)(C)CC(C)(C)c1ccc(OCC(=O)Nc2ccc(C(F)(F)F)cc2)cc1 | 5.46
9. COC(=O)c1cccc(NC(=O)C(C)(C)Oc2ccc(C34CC5CC(CC(C5)C3)C4)cc2)c1 | 5.88
10. COC(=O)c1cccc(NC(=O)CCCOc2ccc(C(C)(C)CC(C)(C)C)cc2)c1 | 5.93
11. COC(=O)c1cccc(NC(=O)CCOc2ccc(C(C)(C)CC(C)(C)C)cc2)c1 | 5.97
12. CCCCc1ccc(OCC(=O)Nc2cccc(C(=O)OC)c2)cc1 | 5.02
